measurementLabel: logP

Examples with their reported logP follow.
Reported logP, compound CC(C)OC(=O)CS(=O)(=O)c1ccc([N+](=O)[O-])cc1Cl : ____ 2.4

GET /values?readout=logP&item= COC(=O)CS(=O)c1ccc(Cl)cc1[N+](=O)[O-] (stereo unspecified) 1.29

Any idea what logP was measured for COC(=O)CS(=O)c1ccccc1[N+](=O)[O-] (stereo unspecified) ? 0.74

(I) COC(=O)CS(=O)(=O)c1ccccc1[N+](=O)[O-]
(II) COC(=O)CS(=O)(=O)c1ccc([N+](=O)[O-])cc1Cl
(III) CC(C)OC(=O)CS(=O)(=O)c1ccc(Cl)cc1[N+](=O)[O-]
Arrange items by their logP values in increasing order. In plain terms: list the labels in the order you were asked to. I, II, III
(I: 0.78, II: 1.45, III: 2.45)

(A) COC(=O)CS(=O)(=O)c1ccc([N+](=O)[O-])cc1
(B) CC(C)OC(=O)CS(=O)c1ccc([N+](=O)[O-])cc1Cl (stereo unspecified)
Which entry has a larger number for logP, A or B ? Pick one and reply with its label. B

(A) COC(=O)CS(=O)c1ccc([N+](=O)[O-])cc1 (stereo unspecified)
(B) CC(C)OC(=O)CS(=O)c1ccc([N+](=O)[O-])cc1 (stereo unspecified)
Lower logP: A or B ? Identify your pick by its label. A
(A: 0.8, B: 1.64)

====

measurementLabel: logP

Returns the measured logP for the input compound. Input: CC(C)OC(=O)CSc1ccccc1[N+](=O)[O-] 2.76

I'd like to know its logP. The compound in question is CC(C)OC(=O)CS(=O)(=O)c1ccc([N+](=O)[O-])cc1 1.8

What value of logP has been reported for the following compound? COC(=O)CSc1ccc(Cl)cc1[N+](=O)[O-] 2.24

Param item = CC(C)OC(=O)CSc1ccc([N+](=O)[O-])cc1 ; retrieve measured logP. 2.79

Need logP, item CC(C)OC(=O)CS(=O)c1ccc(Cl)cc1[N+](=O)[O-] (stereo not given) 2.22

====

measurementLabel: logP

Here is how some compounds turned out for logP.
Give the measured logP of CC(C)OC(=O)CSc1ccc([N+](=O)[O-])cc1Cl . 3.2

Sample CC(C)OC(=O)CSc1ccc([N+](=O)[O-])cc1[N+](=O)[O-] — what was its logP? 2.81

Fill blank: measured logP of the compound CC(C)OC(=O)CSc1ccc(Cl)cc1[N+](=O)[O-] is ____. 3

Requested field: logP. Item: COC(=O)CSc1ccc([N+](=O)[O-])cc1[N+](=O)[O-] 2.05

(1) CC(C)OC(=O)CS(=O)(=O)c1ccccc1[N+](=O)[O-]
(2) COC(=O)CS(=O)c1ccc([N+](=O)[O-])cc1[N+](=O)[O-] (stereo unspecified)
Could you kindly indicate whether 1 or 2 has the higher logP value? State your choice using its label. 1
(1: 1.72, 2: 0.63)

(A) COC(=O)CS(=O)c1ccc([N+](=O)[O-])cc1Cl (stereo unspecified)
(B) COC(=O)CSc1ccc([N+](=O)[O-])cc1Cl
// compare measured logP, left A , right B , return larger // caller expects the label of the chosen entry B

(A) COC(=O)CS(=O)(=O)c1ccc(Cl)cc1[N+](=O)[O-]
(B) COC(=O)CSc1ccccc1[N+](=O)[O-]
Of A and B , which carries the smaller reported logP figure? Give the label under which the chosen entry appears. A
